Test system: Plasmodium berghei
Assay: Screen against P. berghei liver stage (PbLuc), transformed with Luciferase, at 10uM
Format: functional, HepG2
Conditions: tested at 10 uM
The campaign covered roughly 69,000 compounds. About 8,600 (12%) showed an effect of 50% or more. What follows is part of a selection rich in strong results, with near analogues and random picks from the rest.
Quantity kind: INHIBITION (%)
Answers are plain numbers, in %.

Examples with answers:
| Molecule | Quantity kind | Reported result |
| --- | --- | --- |
| Cc1nn(C)c(N2CCOCC2)c1CNC1CCc2ccccc21 (stereo not drawn) | INHIBITION | 7.08 |
| O=C(CS(=O)(=O)c1ccccn1)NC1CCCc2ccccc21 (stereo not drawn) | INHIBITION | -17.8 |

Switching to the query record.
# INHIBITION lookup, item CCCOCCCNc1nccc(-c2cn(C)nc2C)n1
-49.8

----------
System: Plasmodium berghei
Assay: Screen against P. berghei liver stage (PbLuc), transformed with Luciferase, at 10uM
Format: functional, HepG2
Conditions: tested at 10 uM
In all, about 69,000 compounds went through this assay and about 8,600 (12%) showed an effect of 50% or more. The sample as a whole holds a higher share of strong results than the screen did.
Exercise: state measured INHIBITION for each of the molecules provided.
One number for each entry, in %.

Examples with answers:
| Molecule | Quantity kind | Reported result |
| --- | --- | --- |
| CC(C)(C)c1nnc2n1C(C(=O)N1CCN(c3ncccn3)CC1)CC2 (stereo unspecified) | INHIBITION | 14.3 |
| COc1ccc2nc(C)c(C(=O)NCCN3CCS(=O)(=O)CC3)cc2c1 | INHIBITION | 46.9 |
| COc1c(C)cnc(CN2CCCC(c3noc(C4CC4)n3)C2)c1C (stereo unspecified) | INHIBITION | 17.1 |
| O=C(COCC(=O)N(c1ccccc1)c1ccccc1)N1CCOCC1 | INHIBITION | 13.3 |
| CC1=Nc2c(c(=O)[nH]n2C2CCCC2)C(c2ccc(C(=O)O)cc2)S1 (stereo unspecified) | INHIBITION | 26.65 |

Need INHIBITION for each of these molecules.
1. CC(=O)N1N=C(c2cccs2)OC1C(=O)Nc1ccc(C(C)C)cc1 (stereo unspecified)
2. Cc1cscc1C(=O)Nc1cc(CSCCO)ccn1
3. Cc1ccc(CCC(C)NC2CCN(C(N)=O)CC2)cc1 (stereo unspecified)
4. Cc1cc(N2CCCN(C(=O)CSCC3CC3)CC2)ccn1
5. O=C(Cc1cn2ccccc2n1)N1CCCC(n2cccn2)C1 (stereo unspecified)
6. O=S(=O)(c1c(N2CCCC2)ccc2nonc12)N1CCCC1
7. Cc1noc(C)c1-c1cccc(CC2CCN(C(=O)c3cc[nH]n3)C2)n1 (stereo unspecified)
8. COC(=O)CCn1ccc(=O)c2ccc(OC)cc21

6.55
52.2
-4.15
37.6
21.5
17.7
46.1
-7.53

----------
Exercise: state measured INHIBITION for each of the compounds provided.
Test system: Plasmodium berghei
Assay: Screen against P. berghei liver stage (PbLuc), transformed with Luciferase, at 10uM
Type: functional, HepG2
Settings: tested at 10 uM
About 8,600 (12%) of roughly 69,000 compounds showed an effect of 50% or more. This excerpt belongs to a sample that is enriched for strong results.
Give bare numbers, in %.

Need INHIBITION for each of these compounds.
1. O=C(O)c1ccccc1-c1ccc(CN2CCCC(O)C2)cc1 (stereo not given)
2. Cn1ccnc1CN1C(=O)CO[C@H]2CN(CCCc3ccccc3)C[C@H]21
3. CC(=O)NC1CCCN(C(=O)NCCOc2ccc3c(c2)OCO3)C1 (stereo not given)

1. 48.6
2. 27.5
3. 15.6

Need INHIBITION for each of these compounds.
1. OCC1CCCN1c1cc(NCc2cccc3cccnc23)ncn1 (stereo not given)
2. CCOCc1nc2c(c(NC(CC)c3ccnn3C)n1)CCNCC2 (stereo not given)
3. CC(C)[C@H](CO)Nc1nccc(-c2c[nH]nc2-c2ccncc2)n1
4. CC(C)COC1CC2(CCN(Cc3nccn3C)CC2)C1
5. CC(C)n1c(C2CCCN(Cc3ccnn3C)C2)nc2ccccc21 (stereo not given)
6. Cc1cc(-c2c[nH]nc2C2CCCCN2C(=O)c2ccccc2)on1 (stereo not given)
7. Cc1cc(NCc2noc(C(C)C)n2)nc(-c2ccccc2)n1

1. -21.8
2. 40.6
3. -31.5
4. 31.6
5. 23.9
6. 23
7. 14.4

Need INHIBITION for each of these compounds.
1. O=C(CCc1cccnc1)N1CCCCC1c1ccn2ccnc2n1 (stereo not given)
2. c1ccc([C@@H]2CN(Cc3cccnc3)C[C@H]2c2cc[nH]n2)cc1
3. Cc1noc(C)c1-c1cc(C2CCNCC2)ccn1
4. Cc1noc(C)c1-c1ccnc(C2CCN(C3CCOCC3)CC2)c1

[45.6, 27.2, 20.8, 24.4]

----------
Exercise: state measured INHIBITION for each of the compounds provided.
Test system: Plasmodium berghei
Test: Screen against P. berghei liver stage (PbLuc), transformed with Luciferase, at 10uM
Type: functional, HepG2
Details: tested at 10 uM
About 8,600 (12%) of roughly 69,000 compounds showed an effect of 50% or more. For the sample, strong results were picked, then their nearest neighbours and some compounds at random.
Numbers only, in %.

Need INHIBITION for each of these compounds.
1. O=C1CCC[C@]2(CN(S(=O)(=O)C3CCCCC3)C[C@H]2c2cccnc2)N1
2. COCCNC(=O)C(C)n1nc(-c2ccco2)cc(N)c1=O (stereo unspecified)
3. CN1CCCCC1c1ncc2c(n1)CCN(Cc1ccccc1Cl)C2 (stereo unspecified)
4. C/C(NC(=O)c1ccccn1)=C1\C(=O)C[C@@H]2[C@H]1C2(C)C
5. C[C@@H]1CN(Cc2ccoc2)C[C@]12CCN(CC(=O)N(C)C)C2=O
6. CCC(C)N(Cc1ccsc1)C(=O)c1ccc(CO)cc1 (stereo unspecified)
7. O=C(CCc1nc2cccnc2[nH]1)Nc1ccc2c(c1)OCC(=O)N2

[-11.4, 42.6, 51.7, 9.41, 23.5, 2.7, 17.1]

----------
Tested on: Plasmodium berghei
Test: Screen against P. berghei liver stage (PbLuc), transformed with Luciferase, at 10uM
Assay type: functional, HepG2
Settings: tested at 10 uM
Among all 69,000 compounds or so, about 8,600 (12%) showed an effect of 50% or more. This excerpt belongs to a sample that is enriched for strong results.
Decision: INHIBITION compared against 30%; not below it gives rule met, below it gives rule not met.

A selection of reference data follows.
| Compound | Qualitative label |
| --- | --- |
| CCc1[nH]c2c(CNC(=O)C3CCC(=O)NC3)cc(C)cc2c1C (stereo not drawn) | rule not met |
| CCc1nccn1CC(=O)N1C[C@@H]2CC[C@H]1CN(c1ncccn1)C2 | rule not met |
| O=C(NCCN1CCCC1)Nc1cc(C(=O)N2CCOCC2)ccc1Cl | rule met |

Please indicate if the recorded INHIBITION for Cc1ccc(C(=O)NS(C)(=O)=O)cc1S(C)(=O)=O meets or exceeds 30%.
rule not met

Please indicate if the recorded INHIBITION for CC(C)Oc1ccc(NCc2ccc([S+](C)[O-])cc2)c(F)c1 (stereo not drawn) meets or exceeds 30%.
rule met

Please indicate if the recorded INHIBITION for O=C1[C@H]2CN(S(=O)(=O)c3ccccc3)C[C@H]2CN1Cc1cccnc1 meets or exceeds 30%.
rule not met

Please indicate if the recorded INHIBITION for O=C1CO[C@@H]2CN(CC3CC3)C[C@H]2N1Cc1cccc(F)c1 meets or exceeds 30%.
rule met

Please indicate if the recorded INHIBITION for c1nc(CN2CCCC(Cc3ccc(NC4CCCC4)nn3)C2)c[nH]1 (stereo not drawn) meets or exceeds 30%.
rule not met

----------
System: Plasmodium berghei
Experiment: Screen against P. berghei liver stage (PbLuc), transformed with Luciferase, at 10uM
Format: functional, HepG2
Conditions: tested at 10 uM
In all, about 69,000 compounds went through this assay and about 8,600 (12%) showed an effect of 50% or more. Shown is part of a subset that was picked to be rich in strong results.
Exercise: state measured INHIBITION for each of the molecules provided.
Param answer (str): number followed by unit.

Examples with answers:
| Molecule | INHIBITION |
| --- | --- |
| Cc1cc(C)c2c(N3CCCN(C(=O)C4CCC4)CC3)ncnc2n1 | 30.9% |
| CCCN(CC)C(=O)c1cc2c(c3ccccc3n2C)n1C(=O)N(C)C | 11.9% |
| NC(=O)Nc1cccc(C(=O)N(Cc2ccc(F)cc2)C2CC2)c1 | 13.5% |
| O=C(NCc1cnc2n1CCN(CC1CCOCC1)C2)c1ccno1 | 50.3% |
| Cc1nn(C)c(C)c1-c1ccc(=O)n(C(C)C(=O)NCc2ccco2)n1 (stereo unspecified) | 15.7% |

Switching to the query record.
# INHIBITION lookup, item CN1[C@H](Cn2cncn2)C[C@@H]2CN(C3CCOCC3)CC[C@@H]21
34.6%
